Origin of the recorded values: patent US20250163167A1

- measured_on: T1, hIL10Ra-his (Sino Biological, Catalog#10419) (human, UniProt Q13651 22-235)
- T1 construct: Bought; also called Sino Biological cat#10419-H08H; not shown: C-terminal poly-His tag
- T1 sequence: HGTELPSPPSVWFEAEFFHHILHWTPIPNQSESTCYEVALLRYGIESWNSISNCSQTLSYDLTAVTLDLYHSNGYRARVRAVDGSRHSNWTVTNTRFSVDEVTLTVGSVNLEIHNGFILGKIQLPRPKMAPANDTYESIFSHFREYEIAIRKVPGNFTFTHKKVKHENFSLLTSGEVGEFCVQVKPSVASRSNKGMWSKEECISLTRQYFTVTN
- method_notes: SPR; ratio of experimental to calculated Rmax
experimental_readout: Surface Activity

INSERT INTO results (binder, measured) VALUES
  ('hIL-10Ra_VHH10 Mono-Fc (Fc fusion, Mono-Fc VHH captured on Protein A; not shown: mono-Fc part) QVQLQESGGGSVQAGGSLRLSCAASRYLYSIDYMAWFRQSPGKEREPVAVIYTASGATFYPDSVKGRFTISQDNAKMTVYLQMNSLKSEDTAMYYCAAVRKTDSYLFDAQSFTYWGQGTQVTVSS', '57%'),
  ('hIL-10Ra_VHH9 Mono-Fc (Fc fusion, Mono-Fc VHH captured on Protein A; not shown: mono-Fc part) QVQLQESGGGSVQAGGSLRLSCAVSGYAYSTYCMGWFRQAPGKEREGVAAIDSGGSTSYADSVKGRFTISKDNAKNTLYLRMNSLKPEDTAMYYCAAVPPPPDGGSCLFLGPEIKVSKADFRYWGQGTQVTVSS', '66%'),
  ('hIL-10Ra_VHH14 Mono-Fc (Fc fusion, Mono-Fc VHH captured on Protein A; not shown: mono-Fc part) QVQLQESGGGSVQAGGSLRLSCGASGYTYSSYCMGWFRQVPGKEREGVAVIDSDGSTSYADSVKGRFTISKDNGKNTLYLQMNSLKPEDTAMYYCAADLGHYRPPCGVLYLGMDYWGKGTQVTVSS', '51%');
